molecular target: Insulin receptor (Homo sapiens) (UniProt P06213); test: Inhibition of human recombinant IR at 10 uM by liquid scintillation counting in presence of [33gammaP]ATP
Sequence (P06213 28-758 limits assumed): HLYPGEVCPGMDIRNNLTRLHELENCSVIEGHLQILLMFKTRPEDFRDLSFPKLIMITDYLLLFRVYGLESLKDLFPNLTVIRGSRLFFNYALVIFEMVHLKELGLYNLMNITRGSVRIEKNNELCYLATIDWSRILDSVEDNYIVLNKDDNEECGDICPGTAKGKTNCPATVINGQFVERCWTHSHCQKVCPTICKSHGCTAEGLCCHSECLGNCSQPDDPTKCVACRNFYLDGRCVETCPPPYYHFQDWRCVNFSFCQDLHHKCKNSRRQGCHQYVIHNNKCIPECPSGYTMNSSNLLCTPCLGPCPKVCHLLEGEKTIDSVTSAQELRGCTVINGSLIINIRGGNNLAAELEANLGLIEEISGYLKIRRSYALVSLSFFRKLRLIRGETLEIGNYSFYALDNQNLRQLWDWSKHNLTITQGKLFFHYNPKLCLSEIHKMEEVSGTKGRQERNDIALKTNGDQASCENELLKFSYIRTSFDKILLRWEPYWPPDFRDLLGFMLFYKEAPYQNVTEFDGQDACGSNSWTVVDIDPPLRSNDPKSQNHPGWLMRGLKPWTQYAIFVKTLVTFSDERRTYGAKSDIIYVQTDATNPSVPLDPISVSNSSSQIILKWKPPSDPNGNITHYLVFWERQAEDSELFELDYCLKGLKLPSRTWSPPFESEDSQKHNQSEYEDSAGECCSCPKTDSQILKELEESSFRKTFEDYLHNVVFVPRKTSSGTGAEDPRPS
Sequence (P06213 763-1382 limits assumed): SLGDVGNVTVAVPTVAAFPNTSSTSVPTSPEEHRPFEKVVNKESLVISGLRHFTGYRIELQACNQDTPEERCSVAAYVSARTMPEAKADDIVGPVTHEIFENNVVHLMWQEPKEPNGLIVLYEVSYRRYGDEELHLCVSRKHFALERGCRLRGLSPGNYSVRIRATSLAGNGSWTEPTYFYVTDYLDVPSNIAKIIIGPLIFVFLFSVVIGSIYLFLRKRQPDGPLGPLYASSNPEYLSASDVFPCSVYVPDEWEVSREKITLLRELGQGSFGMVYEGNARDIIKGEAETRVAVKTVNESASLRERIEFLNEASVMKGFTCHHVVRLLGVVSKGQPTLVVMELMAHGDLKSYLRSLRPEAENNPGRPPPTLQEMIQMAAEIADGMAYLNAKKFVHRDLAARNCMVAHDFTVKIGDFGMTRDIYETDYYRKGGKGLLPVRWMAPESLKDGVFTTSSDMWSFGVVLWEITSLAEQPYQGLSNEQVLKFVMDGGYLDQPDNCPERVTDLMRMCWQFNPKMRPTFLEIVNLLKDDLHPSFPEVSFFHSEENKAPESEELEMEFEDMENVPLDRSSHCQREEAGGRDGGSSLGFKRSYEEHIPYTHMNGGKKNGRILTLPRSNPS
recorded.endpoint: inhibition

{"sample.smiles": "O=C(CCl)c1cscc1Cl", "inhibition": "< 10%"}
{"sample.smiles": "O=C(CCl)c1ccc(Cl)s1", "inhibition": "< 10%"}
{"sample.smiles": "O=C(CCl)c1csc(C(=O)CCl)c1", "inhibition": "12%"}

// query Param request: inhibition | system Insulin receptor (Homo sapiens) (UniProt P06213) | item Cc1sc(C(=O)CCl)cc1C(=O)CCl
// result 12%

// query Param request: inhibition | system Insulin receptor (Homo sapiens) (UniProt P06213) | item O=C(CCl)c1scc(Br)c1Br
// result < 10%

// query Param request: inhibition | system Insulin receptor (Homo sapiens) (UniProt P06213) | item O=C(CCl)c1c(Br)sc(Cl)c1Cl
// result < 10%

// query Param request: inhibition | system Insulin receptor (Homo sapiens) (UniProt P06213) | item O=C(CCl)c1cc(Cl)sc1Cl
// result < 10%

// query Param request: inhibition | system Insulin receptor (Homo sapiens) (UniProt P06213) | item O=C(CCl)c1cc(Br)c(Br)s1
// result < 10%

// query Param request: inhibition | system Insulin receptor (Homo sapiens) (UniProt P06213) | item O=C(CBr)c1scc(Br)c1Br
// result < 10%

// query Param request: inhibition | system Insulin receptor (Homo sapiens) (UniProt P06213) | item O=C(CCl)c1ccc(Br)s1
// result < 10%

// query Param request: inhibition | system Insulin receptor (Homo sapiens) (UniProt P06213) | item CC(=O)c1csc(C(=O)CCl)c1
// result < 10%

// query Param request: inhibition | system Insulin receptor (Homo sapiens) (UniProt P06213) | item O=C(CBr)c1cc(Br)c(Br)s1
// result 12%

====

molecular target: Glutamate NMDA receptor (Rattus norvegicus) (UniProt P35439+Q00959+Q00960+Q00961+Q62645+Q8VHN2+Q9R1M7); test: Displacement of [3H]CGP39653 from NMDA receptor in rat cerebral cortex at 10 uM; type: tissue-based
recorded.endpoint: inhibition

{"sample.smiles": "O=C(CCl)c1scc(Br)c1Br", "recorded.endpoint": "inhibition", "assay.result": "< 10%"}
{"sample.smiles": "O=C(CCl)c1ccc(Cl)s1", "recorded.endpoint": "inhibition", "assay.result": "< 10%"}
{"sample.smiles": "CC(=O)c1csc(C(=O)CCl)c1", "recorded.endpoint": "inhibition", "assay.result": "< 10%"}

// query Look up inhibition of O=C(CCl)c1cscc1Cl and report it.
// result 16%

// query Look up inhibition of O=C(CCl)c1c(Br)sc(Cl)c1Cl and report it.
// result 13%

// query Look up inhibition of O=C(CBr)c1scc(Br)c1Br and report it.
// result < 10%

// query Look up inhibition of O=C(CCl)c1cc(Cl)sc1Cl and report it.
// result < 10%

// query Look up inhibition of O=C(CCl)c1ccc(Br)s1 and report it.
// result < 10%

// query Look up inhibition of O=C(CCl)c1cc(Br)c(Br)s1 and report it.
// result < 10%

// query Look up inhibition of O=C(CCl)c1csc(C(=O)CCl)c1 and report it.
// result < 10%

// query Look up inhibition of O=C(CBr)c1cc(Br)c(Br)s1 and report it.
// result < 10%

// query Look up inhibition of Cc1sc(C(=O)CCl)cc1C(=O)CCl and report it.
// result < 10%
